# ASSAY_TARGET: full-length human PKCι (Homo sapiens, UniProt P41743)
# Construct: Recombinant, full-length human PKCι expressed in Sf21 insect cells is also commercially available; purchased; host or cells: Sf21 insect cells
# Sequence (P41743 1-596): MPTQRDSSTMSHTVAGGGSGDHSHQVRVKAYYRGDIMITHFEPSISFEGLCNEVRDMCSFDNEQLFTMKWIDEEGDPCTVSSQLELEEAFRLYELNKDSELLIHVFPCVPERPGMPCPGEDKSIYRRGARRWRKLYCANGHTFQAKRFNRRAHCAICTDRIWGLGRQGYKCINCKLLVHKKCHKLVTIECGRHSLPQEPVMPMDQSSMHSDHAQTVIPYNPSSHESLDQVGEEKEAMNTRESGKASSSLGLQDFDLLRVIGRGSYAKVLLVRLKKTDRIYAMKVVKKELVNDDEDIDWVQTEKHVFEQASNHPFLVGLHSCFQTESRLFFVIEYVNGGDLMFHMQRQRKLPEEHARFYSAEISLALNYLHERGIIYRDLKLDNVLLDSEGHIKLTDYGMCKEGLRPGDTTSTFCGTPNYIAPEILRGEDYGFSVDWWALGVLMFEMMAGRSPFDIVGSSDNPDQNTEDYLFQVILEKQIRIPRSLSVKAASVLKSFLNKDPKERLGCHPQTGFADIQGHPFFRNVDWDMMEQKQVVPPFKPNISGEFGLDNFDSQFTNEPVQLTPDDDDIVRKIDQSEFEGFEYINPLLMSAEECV
# ASSAY_METHOD_TEXT: PKCι IC50 IMAP assay, full-length PKCι at 150 μM ATP
# Type: biochemical
# TEST_SETTINGS: read-out: IC50 in IMAP assay against full length PKCi at 150 μM ATP
Measured IC50 values are reported for all entries that follow.

In the examples that follow, each entry is paired with its recorded IC50.
COMPOUND: c1cc(-c2nc(N3CCNCC3)c3c(C4CCC4)cncc3n2)c2cc([C@@H]3C[C@H]4CC[C@@H]3O4)[nH]c2n1 (racemic) [Example 2122]
OUTCOME_MEASURE: IC50
RESULT: < 100 nM

COMPOUND: CN(C)C(=O)c1ccc(Nc2cc(-c3nc(N4CCNCC4)c4c(C5CC5)cncc4n3)ccn2)cc1 [Example 2003]
OUTCOME_MEASURE: IC50
RESULT: < 100 nM

COMPOUND: Cn1ccc(Nc2cc(-c3nc(N4CCN[C@@H](C(F)(F)F)C4)c4c(C5CC5)cncc4n3)ccn2)n1 [Example 2053]
OUTCOME_MEASURE: IC50
RESULT: < 100 nM

COMPOUND: FC(F)(CNc1cc(-c2nc(N3CCNCC3)c3c(C4CC4)cncc3n2)ccn1)c1ccccc1 [Example 2166]
OUTCOME_MEASURE: IC50
RESULT: < 100 nM

COMPOUND: Oc1nc(-c2ccnc(Nc3cccc(N4CCNCC4)c3)c2)nc2cnccc12 [Example 497]
OUTCOME_MEASURE: IC50
RESULT: 10000 to 40000 nM

COMPOUND: CN1CCC(N(C)c2nc(-c3ccnc(Nc4ncc(F)cc4F)c3)nc3cncc(C4CC4)c23)CC1 [Example 2129]
OUTCOME_MEASURE: IC50
RESULT: < 100 nM

COMPOUND: Fc1cccc2nc(Nc3cc(-c4nc(N5CCNCC5)c5c(C6CC6)cncc5n4)ccn3)nn12 [Example 2041]
OUTCOME_MEASURE: IC50
RESULT: < 100 nM

COMPOUND: C[C@@H](Nc1cc(-c2nc(N3CCNC(C)(C)C3)c3c(C4CC4)cncc3n2)ccn1)c1ccccc1 [Example 2007]
OUTCOME_MEASURE: IC50
RESULT: < 100 nM

COMPOUND: CC(=O)N1CCC(Nc2nc(-c3ccnc(Nc4c(F)cccc4F)c3)nc3cncc(C4CC4)c23)CC1 [Example 2085]
OUTCOME_MEASURE: IC50
RESULT: 100 to 1000 nM

COMPOUND: COc1cncc2nc(-c3ccnc(Nc4ccc(Cl)cn4)c3)nc(N3CCNCC3)c12 [Example 366]
OUTCOME_MEASURE: IC50
RESULT: < 100 nM

# evaluate next
Summary: Fc1cc(F)c(-n2cc(Nc3cc(-c4nc(N5CCNCC5)c5c(C6CC6)cncc5n4)ccn3)cn2)c(F)c1 [Example 820] , full-length human PKCι (Homo sapiens, UniProt P41743), IC50 = < 100 nM

Hey, just so you know, these numbers are from patent US9914730B2.
